- System: S. aureus COL (MRSA)
- Protocol Text: microbe, parasite or virus in culture
- Condition: supplement CSV; 12.5% MH pH 7.4
No end group written: not given here.

Record Sequence | MIC S. aureus COL (MRSA) / µg/mL
VDKPPYLPRPRPPRRIYNR [sr11Cterm-Onc] (VDKPPYLPRPRPPRRIYNR-NH2; also: residues 9-19 stereorandomized (1:1 L/D mixture)) | 64
VDKPPYLPRPRPPRRIYNR [sr12Cterm-Onc] (VDKPPYLPRPRPPRRIYNR-NH2; also: residues 8-19 stereorandomized (1:1 L/D mixture)) | 64
VDKPPYLPRPRPPRRIYNR [sr10Cterm-Onc] (VDKPPYLPRPRPPRRIYNR-NH2; also: residues 10-19 stereorandomized (1:1 L/D mixture)) | 32
